All values here come from patent US8466168B2.

Tested on: S. aureus A798
measurement-protocol: MIC determination by microdilution in cation-adjusted Mueller-Hinton Broth (CLSI M7-A7)
Format: cell-based
conditions: Staphylococcus aureus, microdilution method, strain S. aureus A798
Procedure: Minimal inhibitory concentrations (MICs; mg/l) were determined in cation-adjusted Mueller-Hinton Broth by a microdilution method following the description given in “Methods for Dilution Antimicrobial Susceptibility Tests for Bacteria that Grow Aerobically”, Approved standard, 7th ed., Clinical and Laboratory Standards Institute (CLSI) Document M7-A7, Wayne, Pa., USA, 2006. […]
Each entry below carries its reported MIC.

Here's what some known entries look like.
[
  {
    "compound": "COc1ccc2ncc3c(c2n1)C(CCNC[C@@H]1CN(c2ccc(C)c(F)c2)C(=O)O1)CO3 (mixture of isomers)",
    "MIC": "0.25 µg/mL"
  },
  {
    "compound": "COc1ccc2ccc3c(c2n1)CC(CNC[C@@H]1CN(c2ccc4c(c2)NC(=O)CS4)C(=O)O1)CO3 (mixture of isomers)",
    "MIC": "≤ 0.031 µg/mL"
  },
  {
    "compound": "COc1ccc2ncc3c(c2n1)C(CCNC[C@@H]1CN(c2ccc4c(c2)NC(=O)CS4)C(=O)O1)CO3 (mixture of isomers)",
    "MIC": "≤ 0.031 µg/mL"
  },
  {
    "compound": "COc1ccc2ncc3c(c2n1)CC(CNCC[C@@H]1CN(c2ccc4c(c2)NC(=O)CS4)C(=O)O1)O3 (mixture of isomers)",
    "MIC": "≤ 0.031 µg/mL"
  },
  {
    "compound": "COc1ccc2ncc3c(c2n1)CC(CNCC[C@@H]1CN(c2ccc4c(c2)NC(=O)CO4)C(=O)O1)O3 (mixture of isomers)",
    "MIC": "≤ 0.031 µg/mL"
  },
  {
    "compound": "COc1ccc2ncc3c(c2n1)C(CNCC[C@H]1CN(c2ccc4c(c2)NC(=O)CS4)C(=O)O1)CO3 (mixture of isomers)",
    "MIC": "≤ 0.031 µg/mL"
  },
  {
    "compound": "COc1ccc2ncc3c(c2n1)[C@@H](CCNCC1CN(c2ccc4c(c2)OCCO4)C(=O)O1)CO3 (mixture of isomers)",
    "MIC": "1 µg/mL"
  }
]

# context switch: different compound, same MIC
// returns reported MIC for input COc1ccc2ncc3c(c2n1)C(CCNC[C@@H]1CN(c2ccc4c(c2)NC(=O)CO4)C(=O)O1)CO3 (mixture of isomers)
≤ 0.031 µg/mL
